# assay-text: Hepatic metabolism S9 fraction incubation, rat
# stated-conditions: rat, s9, t 1/2 Rat (liver, S9), 0.1 μM, plus glutathione, UDPGA, PAPS, 37 °C
measured-parameter: half-life at 0.1 μM (min)
Give the number; min is assumed, so skip it.

(Q) Item under review: O=C1CCC(N2C(=O)c3cccc(NCCOCCOCCOCCOCCNC(=O)c4ccc(O)c5ncccc45)c3C2=O)C(=O)N1 (stereo not shown) [Compound 4] . Reported half-life at 0.1 μM?
(A) 20

---

# assay-system: hERG potassium channel (Homo sapiens)
# Sequence (Q12809 whole entry): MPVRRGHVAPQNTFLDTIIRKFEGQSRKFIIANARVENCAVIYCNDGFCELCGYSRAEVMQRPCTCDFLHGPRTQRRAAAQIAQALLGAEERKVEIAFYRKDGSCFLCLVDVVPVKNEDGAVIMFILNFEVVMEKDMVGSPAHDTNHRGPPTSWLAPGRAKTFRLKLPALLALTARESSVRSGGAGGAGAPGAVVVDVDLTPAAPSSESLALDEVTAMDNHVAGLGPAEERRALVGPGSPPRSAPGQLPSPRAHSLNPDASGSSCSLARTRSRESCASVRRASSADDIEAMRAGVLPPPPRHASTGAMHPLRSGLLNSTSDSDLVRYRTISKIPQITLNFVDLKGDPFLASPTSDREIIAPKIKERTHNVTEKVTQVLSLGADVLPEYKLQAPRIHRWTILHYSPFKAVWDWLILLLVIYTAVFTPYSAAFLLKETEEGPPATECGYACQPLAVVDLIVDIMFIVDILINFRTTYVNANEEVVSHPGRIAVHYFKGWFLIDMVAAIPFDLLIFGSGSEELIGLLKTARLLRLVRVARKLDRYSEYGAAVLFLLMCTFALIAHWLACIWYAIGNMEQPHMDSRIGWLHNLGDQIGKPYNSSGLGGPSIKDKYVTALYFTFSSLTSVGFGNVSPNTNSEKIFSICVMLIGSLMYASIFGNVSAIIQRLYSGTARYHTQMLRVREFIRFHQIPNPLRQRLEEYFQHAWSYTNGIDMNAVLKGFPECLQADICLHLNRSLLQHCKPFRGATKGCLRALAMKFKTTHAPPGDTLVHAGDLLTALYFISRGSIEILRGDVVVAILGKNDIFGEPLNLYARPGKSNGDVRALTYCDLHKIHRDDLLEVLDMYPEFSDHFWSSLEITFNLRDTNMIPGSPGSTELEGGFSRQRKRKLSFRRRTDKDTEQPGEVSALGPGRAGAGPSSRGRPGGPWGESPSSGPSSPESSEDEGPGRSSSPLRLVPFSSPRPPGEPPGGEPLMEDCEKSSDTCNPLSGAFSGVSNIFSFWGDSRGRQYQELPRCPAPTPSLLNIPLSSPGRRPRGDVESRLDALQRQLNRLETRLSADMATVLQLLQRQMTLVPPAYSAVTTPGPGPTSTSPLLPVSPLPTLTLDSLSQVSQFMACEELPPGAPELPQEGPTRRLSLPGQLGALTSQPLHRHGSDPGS
# assay-text: hERG automated patch-clamp assay
measured-parameter: IC50

(Q) Item under review: O=C1CCC(N2C(=O)c3cccc(NCCOCCOCCOCCOCCNC(=O)c4ccc(O)c5ncccc45)c3C2=O)C(=O)N1 (stereo not shown) . Reported IC50?
(A) > 30 µM

The measurements presented in this section are drawn from paper PMC11393732.
